Sourced from ChEMBL document CHEMBL2069300

- assay-notes: Aqueous solubility of the compound in phosphate buffered saline at pH 7.4
- Type: physicochemical
- cond: buffer

{"smiles-record": "CCOc1ccc(/C=C/C2=[N+](C)c3ccc(C(=O)OC)cc3C2(C)C)cc1", "solubility [µM]": 0.7}
{"smiles-record": "CCCS(=O)(=O)c1oc(-c2cccs2)nc1S(=O)(=O)c1ccc(F)cc1", "solubility [µM]": 21.9}
{"smiles-record": "CC(C)S(=O)(=O)c1oc(-c2cccs2)nc1S(=O)(=O)c1ccccc1", "solubility [µM]": 34.2}
{"smiles-record": "COc1ccc(/C=C/C2=[N+](C)c3ccc(OC)cc3C2(C)C)cc1", "solubility [µM]": 273.3}
{"smiles-record": "CCCCNC(=O)Cn1sc2nc(C)cc(C)c2c1=O", "solubility [µM]": 487}
{"smiles-record": "Cc1c(C=O)c(C(=O)O)c(C)n1Cc1ccc(Cl)cc1", "solubility [µM]": 576}
{"smiles-record": "Cc1cccc(N2COc3ccc4ccccc4c3C2)c1", "solubility [µM]": 377.4}
{"smiles-record": "CC(C)CS(=O)(=O)c1oc(-c2cccs2)nc1S(=O)(=O)c1ccc(F)cc1", "solubility [µM]": 17.6}
